Where do these numbers come from? They come from patent US20070254831A1.

# system name: T1, soluble human FcRn (human, UniProt P55899 24-297; P61769 21-119, biotinylated (Sulfo-NHS-LC-Biotin) in the ELISA; amine-coupled to CM5 chip in SPR)
# T1 construct: also called shFcRn; biotinylated shFcRn
# procedure text: SPR, pH 6
pKd: −log10 of the molar value. Bridge positions count the residues as written; N and C are the ends. Ends that are not written are not given here.
measurement name: pKd

Worked cases, pKd given:
binder: QRFXTGHFGGLYPXNGP (hC at 4 and 14; disulfide; C-terminal amide) [Peptide No. 28]
endpoint result: 5.42

binder: QRFXTGHFGGLYPXNGP (hC at 4; Pen at 14; disulfide; C-terminal amide) [Peptide No. 70]
endpoint result: 5.68

binder: QRFXTGHFGGLYPXNGP (Pen at 4 and 14; disulfide; C-terminal amide) [Peptide No. 34]
endpoint result: 6.43

binder: QRFXTGHFGPLYPXNGP (Pen at 4 and 14; D-Pro at 10; disulfide; C-terminal amide) [Peptide No. 295]
endpoint result: 6.55

binder: QRFCTGHFGGLYPXNGP (hC (L-homocysteine) at 14; disulfide; C-terminal amide) [Peptide No. 27]
endpoint result: 5.41

A = QRFCTGHFGGLYPCNGP-NH2 (disulfide 4-14 (inferred)) [SEQ ID NO:1]
B = QRFXTGHFGGLYPCNGP (Pen (L-penicillamine) at 4; disulfide; C-terminal amide) [Peptide No. 32]
Select the item whose pKd value is smaller, choosing between A and B . Respond using the label that marks the chosen record.
A
(A: 5.29, B: 6.60)
